# procedure.details: Half-lives and pharmacokinetic parameters of polypeptides vs HM-1
# condition.context: in vivo; read-out: CL (converted)
Peptide text beside a SMILES is read from it. * marks the point of attachment. Hexanoyl(6-maleimido) = O=C1C=CC(=O)N1CCCCCC(=O)*; Propanoyl(3-maleimido) = O=C1C=CC(=O)N1CCC(=O)*; X38 = O=C1C=CC(=O)N1CCOCC(=O)*; X45 = O=C1C=CC(=O)N1CCCCC(=O)*
Entries and their clearance
Give the number; mL/min/kg is assumed, so skip it.

>>> measurement("C[C@H](NC(=O)CNC(=O)[C@H](CCCNC(=N)N)NC(=O)CCCCN1C(=O)C=CC1=O)C(=O)N[C@@H](CC(=O)O)C(=O)N[C@@H](CCCNC(=N)N)C(=O)N[C@@H](C)C(=O)NCC(=O)NCC(=O)NCC(=O)NCC(=O)N[C@@H](CCCNC(=N)N)C(=O)NCC(=O)N[C@@H](CC(=O)O)C(=O)O [X4] (X45-RGADRAGGGGRGD-OH)")
0.553

Request: Which measured clearance value corresponds to C[C@H](NC(=O)[C@H](CCCNC(=N)N)NC(=O)[C@H](CC(=O)O)NC(=O)CNC(=O)[C@H](CCCNC(=N)N)NC(=O)CCN1C(=O)C=CC1=O)C(=O)NCC(=O)NCC(=O)NCC(=O)NCC(=O)N[C@@H](CCCNC(=N)N)C(=O)NCC(=O)N[C@@H](CC(=O)O)C(=O)O [P7] ({Propanoyl(3-maleimido)}-RGDRAGGGGRGD-OH; C-terminus assumed) ?
Result: 0.522

Request: Which measured clearance value corresponds to C[C@H](NC(=O)[C@H](CCCNC(=N)N)NC(=O)[C@H](CC(=O)O)NC(=O)CNC(=O)[C@H](CCCNC(=N)N)NC(=O)CCCCCN1C(=O)C=CC1=O)C(=O)NCC(=O)NCC(=O)NCC(=O)NCC(=O)N[C@@H](CCCNC(=N)N)C(=O)NCC(=O)N[C@@H](CC(=O)O)C(=O)O [P8] ({Hexanoyl(6-maleimido)}-RGDRAGGGGRGD-OH; C-terminus assumed) ?
Result: 0.535

Request: Which measured clearance value corresponds to C[C@H](NC(=O)CNC(=O)[C@H](CCCNC(=N)N)NC(=O)COCCN1C(=O)C=CC1=O)C(=O)N[C@@H](CC(=O)O)C(=O)N[C@@H](CCCNC(=N)N)C(=O)N[C@@H](C)C(=O)NCC(=O)NCC(=O)NCC(=O)NCC(=O)N[C@@H](CCCNC(=N)N)C(=O)NCC(=O)N[C@@H](CC(=O)O)C(=O)O [X49] (X38-RGADRAGGGGRGD-OH) ?
Result: 0.585

Request: Which measured clearance value corresponds to C[C@H](NC(=O)CNC(=O)[C@H](CCCNC(=N)N)NC(=O)CCCCCN1C(=O)C=CC1=O)C(=O)N[C@@H](CC(=O)O)C(=O)N[C@@H](CCCNC(=N)N)C(=O)N[C@@H](C)C(=O)NCC(=O)N[C@@H](CO)C(=O)N[C@@H](CO)C(=O)N[C@@H](CO)C(=O)N[C@@H](CO)C(=O)N[C@@H](CCCNC(=N)N)C(=O)NCC(=O)N[C@@H](CC(=O)O)C(=O)O [P14] ({Hexanoyl(6-maleimido)}-RGADRAGSSSSRGD-OH; C-terminus assumed) ?
Result: 0.518

Request: Which measured clearance value corresponds to C[C@H](NC(=O)CNC(=O)[C@H](CCCNC(=N)N)NC(=O)CCCCCN1C(=O)C=CC1=O)C(=O)N[C@@H](CC(=O)O)C(=O)N[C@@H](CCCNC(=N)N)C(=O)N[C@@H](C)C(=O)NCC(=O)NCC(=O)NCC(=O)NCC(=O)N[C@@H](CCCNC(=N)N)C(=O)NCC(=O)N[C@@H](CC(=O)O)C(=O)O [X5] ({Hexanoyl(6-maleimido)}-RGADRAGGGGRGD-OH) ?
Result: 0.598
